In this section we review reported kinase still bound, per cent of control values for a set of compounds.
- target or system: NEK4 (human) (UniProt P51957)
- Sequence (P51957 whole entry, looked up): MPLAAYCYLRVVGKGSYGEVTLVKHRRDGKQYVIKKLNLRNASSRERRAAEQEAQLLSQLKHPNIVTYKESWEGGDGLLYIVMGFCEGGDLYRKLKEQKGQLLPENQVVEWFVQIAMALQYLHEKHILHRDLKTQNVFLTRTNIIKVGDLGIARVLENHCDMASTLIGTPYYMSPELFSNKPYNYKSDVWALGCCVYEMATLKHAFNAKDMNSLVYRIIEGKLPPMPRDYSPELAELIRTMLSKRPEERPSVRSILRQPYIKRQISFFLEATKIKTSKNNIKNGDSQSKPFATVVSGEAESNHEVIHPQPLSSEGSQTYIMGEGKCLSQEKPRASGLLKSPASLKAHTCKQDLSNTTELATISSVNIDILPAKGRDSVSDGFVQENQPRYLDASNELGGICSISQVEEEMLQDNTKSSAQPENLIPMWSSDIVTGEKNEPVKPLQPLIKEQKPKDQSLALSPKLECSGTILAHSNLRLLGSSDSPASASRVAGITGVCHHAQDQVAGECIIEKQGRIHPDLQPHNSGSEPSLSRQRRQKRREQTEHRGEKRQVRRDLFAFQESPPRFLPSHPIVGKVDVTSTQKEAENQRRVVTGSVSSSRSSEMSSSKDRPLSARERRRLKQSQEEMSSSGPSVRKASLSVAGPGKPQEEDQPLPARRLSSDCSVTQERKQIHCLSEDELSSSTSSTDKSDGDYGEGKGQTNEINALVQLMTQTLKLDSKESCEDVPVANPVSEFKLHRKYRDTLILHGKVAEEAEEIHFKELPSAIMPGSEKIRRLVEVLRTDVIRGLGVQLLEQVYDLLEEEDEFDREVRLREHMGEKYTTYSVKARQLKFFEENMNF
- test details: KINOMEscan competition binding
- settings: compound 10.0 µM
Enter your answer as a number in %; do not include the unit.

>>> observed_measurement("C=CC(=O)Nc1cccc(Nc2nc(N[C@H]3CC[C@H](N(C)C)CC3)nc3c2ncn3C(C)C)c1")
100

Item `CCCS(=O)(=O)Nc1ccc(F)c(C(=O)c2c[nH]c3ncc(-c4ccc(Cl)cc4)cc23)c1F` has what recorded kinase still bound, per cent of control? 95

Item `O=C(NOC[C@H](O)CO)c1ccc(F)c(F)c1Nc1ccc(I)cc1F` has what recorded kinase still bound, per cent of control? 78

Item `N#Cc1c(NC(=O)c2cccc3ccccc23)sc2c1CCCC2` has what recorded kinase still bound, per cent of control? 76

Item `O=C(NC1CC1)c1cccc(-c2ccc3c(NC(=O)C4CC4)n[nH]c3c2)c1` has what recorded kinase still bound, per cent of control? 100

----------
- target or system: TEK (human)
- test details: KINOMEscan competition binding
- settings: compound 10.0 µM
measured parameter: kinase still bound, per cent of control (%)
Enter your answer as a number in %; do not include the unit.

>>> observed_measurement("O=C(NOC[C@H](O)CO)c1ccc(F)c(F)c1Nc1ccc(I)cc1F")
100
>>> observed_measurement("CN(C)C/C=C/C(=O)Nc1cccc(Nc2ncc3c(n2)N(C)c2ccccc2C(=O)N3C)c1")
35
>>> observed_measurement("Cc1ccc(C(=O)Nc2cccc(C(F)(F)F)c2)cc1Nc1cncc(C(N)=O)c1")
100

Form: Entry = COc1cc(C(=O)NC2CCN(C)CC2)ccc1Nc1ncc2c(n1)N(C1CCCC1)C(C)CC(=O)N2C (centres undefined) | System = TEK (human) | kinase still bound, per cent of control = ____ 100

Form: Entry = `OCCCNc1cc(-c2ccnc(Nc3cccc(Cl)c3)n2)ccn1` | System = TEK (human) | kinase still bound, per cent of control = ____ 100

Form: Entry = `O=C1Nc2ccc(I)cc2/C1=C/c1cc(Br)c(O)c(Br)c1` | System = TEK (human) | kinase still bound, per cent of control = ____ 100

Form: Entry = `CC[C@@H]1C(=O)N(C)c2cnc(Nc3ccc(C(=O)NC4CCN(C)CC4)cc3OC)nc2N1C1CCCC1` | System = TEK (human) | kinase still bound, per cent of control = ____ 100

Form: Entry = `O=C(O)c1ccc(Nc2ncc3c(n2)-c2ccc(Cl)cc2C(c2c(F)cccc2F)=NC3)cc1` | System = TEK (human) | kinase still bound, per cent of control = ____ 3

Form: Entry = `CCN1CCN(Cc2ccc(Nc3ncc4c(n3)N(C)c3ccccc3C(=O)N4C)cc2C(F)(F)F)CC1` | System = TEK (human) | kinase still bound, per cent of control = ____ 85

----------
- target or system: IKBKB (human)
- test details: KINOMEscan competition binding
- settings: compound 10.0 µM
measured parameter: kinase still bound, per cent of control

Study these solved cases before continuing.
>>> observed_measurement("C=CC(=O)Nc1cccc(Oc2nc(Nc3ccc(N4CCN(C)CC4)cc3OC)ncc2Cl)c1")
"100%"
>>> observed_measurement("Nc1ccc(-c2ccc3ncc4ccc(=O)n(-c5cccc(C(F)(F)F)c5)c4c3c2)cn1")
"89%"
>>> observed_measurement("Cc1ccc(C(=O)Nc2cccc(C(F)(F)F)c2)cc1Nc1cncc(C(N)=O)c1")
"100%"
>>> observed_measurement("Cc1cc([C@@H](C)Nc2ccccc2C(=O)O)c2nc(N3CCOCC3)cc(=O)n2c1")
"90%"
>>> observed_measurement("C=CC(=O)Nc1cccc(Nc2nc(N[C@H]3CC[C@H](N(C)C)CC3)nc3c2ncn3C(C)C)c1")
"76%"

Item `CCC(=O)N1CCN(c2ccc(-n3c(=O)ccc4cnc5ccc(-c6cnc7ccccc7c6)cc5c43)cc2C(F)(F)F)CC1` has what recorded kinase still bound, per cent of control? 61%

Item `O=C1Nc2ccc(I)cc2/C1=C/c1cc(Br)c(O)c(Br)c1` has what recorded kinase still bound, per cent of control? 100%

Item `Cc1ccc2nc(NCCN)c3ncc(C)n3c2c1` has what recorded kinase still bound, per cent of control? 0.55%
